assay-details: Solubility study in aqueous buffers and organic solvents
Type: physicochemical
measurement-conditions: organic solvent or mixture, thermodynamic from solid; Ethyl Acetate, n = 3; read-out: Relative solubility in ethyl acetate
Recorded solubility, one value per entry.

INSERT INTO results (compound, quantity, result) VALUES
  ('CC[C@H]1OC(=O)[C@H](C)[C@@H](OC2C[C@@](C)(OC)[C@@H](O)[C@H](C)O2)[C@H](C)[C@@H](OC2O[C@H](C)C[C@H](N(C)C)[C@H]2O)[C@](C)(O)C[C@@H](C)/C(=N\NC(=O)C23CC4CC(CC(C4)C2)C3)[C@H](C)[C@@H](O)[C@]1(C)O (some centres unmarked) [AD-EM, adamantane-modified erythromycin]', 'solubility', '> 40 mg/mL');

// moving on: another record for solubility
[in] Which solubility is reported for this compound? CC[C@H]1OC(=O)[C@H](C)[C@@H](O[C@H]2C[C@@](C)(OC)[C@@H](O)[C@H](C)O2)[C@H](C)[C@@H](O[C@@H]2O[C@H](C)C[C@H](N(C)C)[C@H]2O)[C@](C)(O)C[C@@H](C)C(=O)[C@H](C)[C@@H](O)[C@]1(C)O [EM, Erythromycin]
[out] > 40 mg/mL
